Cited source for all entries: PubChem BioAssay (NCI)

# growth inhibition per entry
- ASSAY_INFO: NCI Yeast Anticancer Drug Screen. Data for the bub3 strain (AID 167)
- CONDITION_SET: S. cerevisiae bub3 mutant strain, at 5.0 µM (retest, dose inferred, filed as 0.5), stronger effect = higher value
Compounds without any hit were thinned out: in the full panel of roughly 79,000, 15% have a hit.
METRIC: growth inhibition (%)

MOLECULE | METRIC | VALUE
O=C(Cc1ccccc1)c1ccc(O)cc1 | growth inhibition | 44
CN(C)CCNC(=O)c1cccc2nc3c4ccccc4c4ccccc4c3nc12 | growth inhibition | 7
Cc1nc2ccccc2c(=O)n1NC(=O)c1ccc(CS)cc1 | growth inhibition | -13
CCOC(=O)C1=C(C)NC(C)=C(C(=O)OCC)C1c1cccc([N+](=O)[O-])c1 | growth inhibition | 29
CCCCCCCCCCCCOC1C(COCCN2CCCC2)OC2OC(C)(C)OC21 (configuration not stated) | growth inhibition | 29
N#C/C(=C1C=C/C(=N\O)C(Cl)=C\1)c1ccccc1 | growth inhibition | 37
CCSc1c2ccccc2c(-c2nc(F)nc(F)n2)n1CCc1ccccc1 | growth inhibition | 0
Cc1ccc2oc(-c3cccc(N)c3)nc2c1 | growth inhibition | 9
OC1C#CCSCC#C/C=C\1 (configuration not stated) | growth inhibition | 16
CN(C)N1C(=O)SCC(c2ccccc2)(c2ccccc2)C1=O | growth inhibition | 12
Oc1ccc(Cc2nccc3cc(O)c(O)cc23)cc1O | growth inhibition | 20
COc1ccc2nc(N/N=C/c3sccc3C)cc(C)c2c1 | growth inhibition | 96

* * *

- ASSAY_INFO: NCI Yeast Anticancer Drug Screen. Data for the bub3 strain (AID 167)
- CONDITION_SET: S. cerevisiae bub3 mutant strain, at 1.2 µM, stronger effect = higher value
Compounds without any hit were thinned out: in the full panel of roughly 79,000, 15% have a hit.
METRIC: growth inhibition (%)

COMPOUND | METRIC | VALUE
O=C(Nn1c(-c2ccccc2)nc2ccccc2c1=O)c1ccc(Cl)cc1 | growth inhibition | 43
c1ccc(C2=NNC3c4ccccc4-c4ccccc4N3C2)cc1 (stereo not given) | growth inhibition | 2
CC1=NN(C(=O)CC(=O)N(C(=O)c2ccccc2)c2ccc(Cl)cc2)C(=O)C1N=Nc1ccc([N+](=O)[O-])cc1 (stereo not given) | growth inhibition | -5
O=[N+]([O-])c1cccc2nc3ccccc3c(NCCC[N+]3([O-])CCOCC3)c12 | growth inhibition | -9
O=C(O)[C@H]1[C@@H](C2CCCCC2)O[C@@H](C2CCCCC2)O[C@H]1C(F)(F)F | growth inhibition | -4

* * *

- ASSAY_INFO: NCI Yeast Anticancer Drug Screen. Data for the rad14 strain (AID 159);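 also: 0% = growth of vehicle-treated control cultures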
- CONDITION_SET: S. cerevisiae rad14 strain growth inhibition; at 11.0 µM; stronger effect = higher value
About 79,000 compounds went through this panel and 15% of them were active in at least one assay; those are over-represented in the sample as a whole.
Label scheme for growth inhibition: lower than 20% is not met, 20% and above is met.

MOLECULE | ASSIGNED_LABEL
COc1ccc(/C(=N/O)c2ccccc2C2=Nc3ccccc3C(NCc3ccccc3)O2)cc1C (configuration not stated) | not met
CN(C)N=Nc1ccc(NC=O)cc1 | not met
NNc1nnc(-c2ccccc2)nc1Cc1ccccc1 | not met
CC[N+]1(C)CCC(O)(/C=C/c2ccc(Cl)c(Cl)c2)C(C(=O)/C=C/c2ccc(Cl)c(Cl)c2)C1 (configuration not stated) | met
Nc1ccc2cc(Br)c3ccccc3c2c1 | not met
O=C1c2ccccc2C2CCC1c1ccccc12 (configuration not stated) | not met
Cc1cc(N(CCOS(C)(=O)=O)CCOS(C)(=O)=O)ccc1C=O | met
O=Cc1ccccc1B(O)O | met
O=C(N/N=C/c1ccc2c(c1)CCC2)c1ccccc1[N+](=O)[O-] | not met
CCC(C)/C(C)=N/NC(N)=O (configuration not stated) | not met
N#C/C(=C1C=C/C(=N\O)C(Cl)=C\1)c1ccccc1 | not met
N=c1oc2ccccc2cc1-c1nc2ccccc2[nH]1 | met

* * *

- ASSAY_INFO: NCI Yeast Anticancer Drug Screen. Data for the mec2-1 strain (AID 157)
- CONDITION_SET: S. cerevisiae mec2-1 strain, at 5.0 µM (retest, dose inferred, filed as 0.5), stronger effect = higher value
This is part of a sample that, as a whole, favours compounds with a hit. Of some 79,000 tested, about 15% had one in any assay. Starred links: 1 amine or outer side, 2 acyl side, 3 side chain; linkers in the order of their positions; H or OH if unused. Positions of bridges follow the written chain, without caps; N, C: chain ends. Non-standard residues stand in square brackets, D forms with d. Residues, ends and D or L forms follow the SMILES beside them. Chains are numbered I, II in the order given. Actinocin(9to1) = Cc1c2oc3c(C)ccc(C(=O)[*:1])c3nc-2c(C(=O)[*:2])c(N)c1=O; aThr = C[C@H](O)[C@H](N)C(=O)O; NMeV = CN[C@H](C(=O)O)C(C)C; Sar = CNCC(=O)O
# growth inhibition per entry

COMPOUND | MEASUREMENT_UNIT | growth inhibition
CN(C)CCNC(=O)c1cccc2nc3c(ccc4ccccc43)nc12 | % | 5
O=C(O)CN(CCNC(=O)OCC1c2ccccc2-c2ccccc21)CCNC(=O)OCC1c2ccccc2-c2ccccc21 | % | -10
Cc1ccc(Nc2n[nH]c(=S)s2)cc1C | % | 96
COC1=C(N=[N+]=[N-])C(=O)c2ncccc2C1=O | % | 38
O=C1C(Br)=CC(Br)(Br)C=C1Br | % | 100
OC(c1ccc(Br)cc1)(c1cccs1)C1CC1 (stereo not given) | % | 61
COc1cc(C(C)C(C(=O)O)C(=O)C(=O)O)cc(OC)c1OC (stereo not given) | % | 7
O=S(=O)(O)CC[S][Sn]([S]CCS(=O)(=O)O)([c]1ccccc1)[c]1ccccc1 | % | 20
Cc1ccc(S(=O)(=O)N/N=C/c2c(O)ccc3ccccc23)cc1 | % | 53
O=Cn1c2ccccc2c2ccccc21 | % | 57
COc1ccc2c(Cc3c4ccccc4cc4ccccc34)cncc2c1O | % | 19
Oc1ccc(Cc2nccc3cc(O)c(O)cc23)cc1O | % | 46
c1ccc(N/N=C2\CC(c3ccccc3)Oc3ccccc32)cc1 (stereo not given) | % | -2
[O-]c1c2cc(-[n+]3c(-c4ccccc4)cc(-c4ccccc4)cc3-c3ccccc3)cc1COCCOCCOCCOCCOC2 | % | -7
N=c1oc2ccccc2cc1-c1nc2ccccc2[nH]1 | % | 2
CCOc1ccc2ccc3cccnc3c2n1 | % | -3
O=C(/C(=C/c1ccccc1)CBr)c1ccccc1 | % | 3
Cc1nc2ccc(Br)cc2c(=O)n1-c1ccc(NC2OCC(O)C(O)C2O)cc1 (stereo not given) | % | 1
Cc1c2oc3c(C)ccc(C(=O)N[C@@H]4C(=O)N[C@H](C(C)C)C(=O)N5CCC[C@H]5C(=O)N(C)CC(=O)N(C)[C@@H](C(C)C)C(=O)O[C@H]4C)c3nc-2c(C(=O)N[C@@H]2C(=O)N[C@H](C(C)C)C(=O)N3CCC[C@H]3C(=O)N(C)CC(=O)N(C)[C@@H](C(C)C)C(=O)O[C@H]2C)c(N)c1=O (I: [aThr][dV]P[Sar][NMeV] / II: [aThr][dV]P[Sar][NMeV]; ester I:1-I:C, II:1-II:C; linker I:N-II:N via Actinocin(9to1)) | % | 53
CN(C)CCn1c2ccccc2c2nc3cc4ccccc4cc3nc21 | % | 26

* * *

- ASSAY_INFO: NCI Yeast Anticancer Drug Screen. Data for the mec2-1 strain (AID 157)
- CONDITION_SET: S. cerevisiae mec2-1 strain, at 50.0 µM
The panel holds about 79,000 compounds, 15% with a hit somewhere; the sample as a whole holds those more often. Active and inactive are the calls of the source. Cut-off read from the data, not from the text of the source: active = growth inhibition above about 70%; inactive = the rest.
Outcomes: Yes (active), No (inactive)

COMPOUND | ASSIGNED_LABEL
COc1ccc(/C=C2\S/C(=N/Nc3nc(-c4ccccc4)cs3)NC2=O)cc1OC | Yes
CC1C=CN(N(C)C)C2=C1C(=O)c1cnccc1C2=O (stereo unspecified) | Yes
O=C1C=CC(=Nc2ccc3c(c2)Cc2cc(Cl)ccc2-3)O1 | Yes
Cc1cc(N(CCOS(C)(=O)=O)CCOS(C)(=O)=O)ccc1C=O | No
OC1C#CCSCC#C/C=C\1 (stereo unspecified) | Yes
N=c1oc2ccccc2cc1-c1nc2ccccc2[nH]1 | No

* * *

- ASSAY_INFO: NCI Yeast Anticancer Drug Screen. Data for the rad50 strain (AID 155);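 also: 0% = growth of vehicle-only cultures of the same strain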
- CONDITION_SET: S. cerevisiae rad50 strain growth inhibition; at 3.7 µM; stronger effect = higher value
The panel holds about 79,000 compounds, 15% with a hit somewhere; the sample as a whole holds those more often. Active and inactive are the calls of the source. Cut-off read from the data, not from the text of the source: active = growth inhibition above about 70%; inactive = the rest.
# growth inhibition per entry

COMPOUND | growth inhibition
Cc1ccc(SSc2ccc(C)cc2[N+](=O)[O-])c([N+](=O)[O-])c1 | 15% (inactive)
[Cl][Pt+2][Cl].[NH-]CC1(C[NH-])CCCCC1 | -37% (inactive)
CN(NC(=O)/C(=C/C=C/c1ccccc1)NC(=O)c1ccccc1)C1=C(Cl)C(=O)[N+](c2ccccc2)=CC1 | -1% (inactive)
N=c1oc2ccccc2cc1-c1nc2ccccc2[nH]1 | 18% (inactive)
CC(C)(C)[Si](C)(C)OCC1OC(n2cnc3c(N)ncnc32)C2OC(=S)OC12 (stereo not given) | 5% (inactive)
O=[N+]([O-])c1cccc2nc3ccccc3c(NCCC[N+]3([O-])CCOCC3)c12 | 65% (inactive)
CCOc1nc(OCC)nc(-c2cccn2-c2ccccc2)n1 | 40% (inactive)
CCCCCCCCCCCCCCCCCN | -17% (inactive)
S=C1NC2=C(CSC/C2=C\c2ccc(Cl)cc2)C(c2ccc(Cl)cc2)N1 (stereo not given) | 42% (inactive)
Cc1cccc[c]1[Sn]([Cl])([S]/C(C#N)=N/N=C/c1ccc(N(C)C)cc1)[c]1ccccc1C | -1% (inactive)
